Every entry's value here was drawn from ChEMBL document CHEMBL3351749.

- Tested on: Candida albicans
- protocol_details: Antimicrobial activity against Candida albicans CGMCC2.2086 after 48 hrs by modified microdilution method
- Type: functional
- condition_set: CGMCC2.2086, 48 h
Known MIC of a selection of compounds
Numeric only. Scale: µg/mL

>>> readout_number("C[C@H]1[C@H](C)CC[C@]2(C(=O)NCCCN(C)C)CC[C@]3(C)C(=CC[C@@H]4[C@@]5(C)Cc6c([nH]c7ccc(F)cc67)C(C)(C)[C@@H]5CC[C@]43C)[C@H]12")
31.2

Query: MIC; subject: C[C@H]1[C@H](C)CC[C@]2(C(=O)NCCCN(C)C)CC[C@]3(C)C(=CC[C@@H]4[C@@]5(C)Cc6c([nH]c7ccccc67)C(C)(C)[C@@H]5CC[C@]43C)[C@H]12
31.2

* * *

- System: Candida tropicalis
- protocol_details: Antimicrobial activity against Candida tropicalis CGMCC2.3967 after 48 hrs by modified microdilution method
- Format: functional
- condition_set: CGMCC2.3967, 48 h
Known MIC of a selection of compounds
Numeric only. Scale: µg/mL

Here's what some known entries look like.
>>> readout_number("COc1ccc2[nH]c3c(c2c1)C[C@]1(C)[C@H]2CC=C4[C@@H]5[C@@H](C)[C@H](C)CC[C@]5(C(=O)O)CC[C@@]4(C)[C@]2(C)CC[C@H]1C3(C)C")
62.5
>>> readout_number("CC(=O)N1CCN(c2ccc(OCC3COC(Cn4ccnc4)(c4ccc(Cl)cc4Cl)O3)cc2)CC1 (stereo not given) [KETOCONAZOLE]")
3.9

Switching to the query record.
Query: MIC; subject: C[C@H]1[C@H](C)CC[C@]2(C(=O)NCCCN(C)C)CC[C@]3(C)C(=CC[C@@H]4[C@@]5(C)Cc6c([nH]c7ccc(Br)cc67)C(C)(C)[C@@H]5CC[C@]43C)[C@H]12
62.5

* * *

Known pIC50 of a selection of compounds
- System: HepG2
- protocol_details: Cytotoxicity against human HepG2 cells assessed as cell survival after 48 hrs by MTT assay
- Format: functional, cell-based
- condition_set: HepG2, 48 h
Keep it numeric: pIC50 is minus log10 of the concentration in mol/L.

Query: pIC50; subject: C[C@H]1[C@H](C)CC[C@]2(C(=O)O)CC[C@]3(C)C(=CC[C@@H]4[C@@]5(C)Cc6c([nH]c7ccccc67)C(C)(C)[C@@H]5CC[C@]43C)[C@H]12
4.59

Query: pIC50; subject: COc1cccc2c1C(=O)c1c(O)c3c(c(O)c1C2=O)C[C@@](O)(C(=O)CO)C[C@@H]3O[C@H]1C[C@H](N)[C@H](O)[C@H](C)O1
6.11

Query: pIC50; subject: C[C@H]1[C@H](C)CC[C@]2(C(=O)NCCCN(C)C)CC[C@]3(C)C(=CC[C@@H]4[C@@]5(C)Cc6c([nH]c7ccc(F)cc67)C(C)(C)[C@@H]5CC[C@]43C)[C@H]12
5.22

Query: pIC50; subject: CCOc1ccc2[nH]c3c(c2c1)C[C@]1(C)[C@H]2CC=C4[C@@H]5[C@@H](C)[C@H](C)CC[C@]5(C(=O)NCCCN(C)C)CC[C@@]4(C)[C@]2(C)CC[C@H]1C3(C)C
5.20

Query: pIC50; subject: COC(=O)[C@]12CC[C@@H](C)[C@H](C)[C@H]1C1=CC[C@@H]3[C@@]4(C)Cc5c([nH]c6ccc(F)cc56)C(C)(C)[C@@H]4CC[C@@]3(C)[C@]1(C)CC2
4.01

* * *

- protocol_details: Cytotoxicity against human […] cells assessed as cell survival after 48 hrs by MTT assay
- Assay type: functional, cell-based
pIC50: −log10 of the molar value.
endpoint_name: pIC50

Here's what some known entries look like.
>>> result("COC(=O)[C@]12CC[C@@H](C)[C@H](C)[C@H]1C1=CC[C@@H]3[C@@]4(C)Cc5c([nH]c6ccccc56)C(C)(C)[C@@H]4CC[C@@]3(C)[C@]1(C)CC2")
"< 4.00"
>>> result("COC(=O)[C@]12CC[C@@H](C)[C@H](C)[C@H]1C1=CC[C@@H]3[C@@]4(C)Cc5c([nH]c6ccc(F)cc56)C(C)(C)[C@@H]4CC[C@@]3(C)[C@]1(C)CC2")
"< 4.00"
>>> result("COc1cccc2c3c([nH]c12)C(C)(C)[C@@H]1CC[C@]2(C)[C@H](CC=C4[C@@H]5[C@@H](C)[C@H](C)CC[C@]5(C(=O)NCCCN(C)C)CC[C@]42C)[C@@]1(C)C3")
4.44
>>> result("COC(=O)[C@]12CC[C@@H](C)[C@H](C)[C@H]1C1=CC[C@@H]3[C@@]4(C)Cc5c([nH]c6ccc(OC)cc56)C(C)(C)[C@@H]4CC[C@@]3(C)[C@]1(C)CC2")
"< 4.00"

Switching to the query record.
Query: pIC50; subject: CCOc1ccc2[nH]c3c(c2c1)C[C@]1(C)[C@H]2CC=C4[C@@H]5[C@@H](C)[C@H](C)CC[C@]5(C(=O)OC)CC[C@@]4(C)[C@]2(C)CC[C@H]1C3(C)C
< 4.00

* * *

- Tested on: Aspergillus niger
- protocol_details: Antimicrobial activity against Aspergillus niger CGMCC3.316 after 48 hrs by modified microdilution method
- Assay type: functional
- condition_set: CGMCC3.316, 48 h
Known MIC of a selection of compounds
Numeric only. Scale: µg/mL

Query: MIC; subject: COC(=O)[C@]12CC[C@@H](C)[C@H](C)[C@H]1C1=CC[C@@H]3[C@@]4(C)Cc5c([nH]c6ccc(C)cc56)C(C)(C)[C@@H]4CC[C@@]3(C)[C@]1(C)CC2
31.2

Query: MIC; subject: COC(=O)[C@]12CC[C@@H](C)[C@H](C)[C@H]1C1=CC[C@@H]3[C@@]4(C)Cc5c([nH]c6ccc(Cl)cc56)C(C)(C)[C@@H]4CC[C@@]3(C)[C@]1(C)CC2
62.5

Query: MIC; subject: C[C@H]1[C@H](C)CC[C@]2(C(=O)O)CC[C@]3(C)C(=CC[C@@H]4[C@@]5(C)Cc6c([nH]c7ccc(F)cc67)C(C)(C)[C@@H]5CC[C@]43C)[C@H]12
62.5

* * *

- protocol_details: Cytotoxicity against human […] cells assessed as cell survival after 48 hrs by MTT assay
- Type: functional, cell-based
endpoint_name: IC50

Query: IC50; subject: C[C@H]1[C@H](C)CC[C@]2(C(=O)O)CC[C@]3(C)C(=CC[C@@H]4[C@@]5(C)Cc6c([nH]c7ccc(F)cc67)C(C)(C)[C@@H]5CC[C@]43C)[C@H]12
16.3 µM

Query: IC50; subject: C[C@H]1[C@H](C)CC[C@]2(C(=O)NCCCN(C)C)CC[C@]3(C)C(=CC[C@@H]4[C@@]5(C)Cc6c([nH]c7ccc(F)cc67)C(C)(C)[C@@H]5CC[C@]43C)[C@H]12
4.6 µM

Query: IC50; subject: Cc1ccc2[nH]c3c(c2c1)C[C@]1(C)[C@H]2CC=C4[C@@H]5[C@@H](C)[C@H](C)CC[C@]5(C(=O)NCCCN(C)C)CC[C@@]4(C)[C@]2(C)CC[C@H]1C3(C)C
1.08 µM

Query: IC50; subject: COc1ccc2[nH]c3c(c2c1)C[C@]1(C)[C@H]2CC=C4[C@@H]5[C@@H](C)[C@H](C)CC[C@]5(C(=O)O)CC[C@@]4(C)[C@]2(C)CC[C@H]1C3(C)C
31.7 µM

Query: IC50; subject: C[C@H]1[C@H](C)CC[C@]2(C(=O)NCCCN(C)C)CC[C@]3(C)C(=CC[C@@H]4[C@@]5(C)Cc6c([nH]c7ccccc67)C(C)(C)[C@@H]5CC[C@]43C)[C@H]12
2.12 µM

Query: IC50; subject: COC(=O)[C@]12CC[C@@H](C)[C@H](C)[C@H]1C1=CC[C@@H]3[C@@]4(C)Cc5c([nH]c6ccc(C)cc56)C(C)(C)[C@@H]4CC[C@@]3(C)[C@]1(C)CC2
> 100 µM

Query: IC50; subject: C[C@H]1[C@H](C)CC[C@]2(C(=O)O)CC[C@]3(C)C(=CC[C@@H]4[C@@]5(C)Cc6c([nH]c7ccc(Cl)cc67)C(C)(C)[C@@H]5CC[C@]43C)[C@H]12
29.9 µM

Query: IC50; subject: CCOc1ccc2[nH]c3c(c2c1)C[C@]1(C)[C@H]2CC=C4[C@@H]5[C@@H](C)[C@H](C)CC[C@]5(C(=O)NCCCN(C)C)CC[C@@]4(C)[C@]2(C)CC[C@H]1C3(C)C
4.88 µM

* * *

- Test system: Candida albicans
- protocol_details: Antimicrobial activity against Candida albicans CGMCC2.2086 after 48 hrs by modified microdilution method
- Type: functional
- condition_set: CGMCC2.2086, 48 h
endpoint_name: MIC

Here's what some known entries look like.
>>> result("Cc1ccc2[nH]c3c(c2c1)C[C@]1(C)[C@H]2CC=C4[C@@H]5[C@@H](C)[C@H](C)CC[C@]5(C(=O)O)CC[C@@]4(C)[C@]2(C)CC[C@H]1C3(C)C")
"> 100 µg/mL"
>>> result("CCOc1ccc2[nH]c3c(c2c1)C[C@]1(C)[C@H]2CC=C4[C@@H]5[C@@H](C)[C@H](C)CC[C@]5(C(=O)NCCCN(C)C)CC[C@@]4(C)[C@]2(C)CC[C@H]1C3(C)C")
"> 100 µg/mL"

Query: MIC; subject: COc1cccc2c3c([nH]c12)C(C)(C)[C@@H]1CC[C@]2(C)[C@H](CC=C4[C@@H]5[C@@H](C)[C@H](C)CC[C@]5(C(=O)NCCCN(C)C)CC[C@]42C)[C@@]1(C)C3
> 100 µg/mL

Query: MIC; subject: COC(=O)[C@]12CC[C@@H](C)[C@H](C)[C@H]1C1=CC[C@@H]3[C@@]4(C)Cc5c([nH]c6ccc(C)cc56)C(C)(C)[C@@H]4CC[C@@]3(C)[C@]1(C)CC2
> 100 µg/mL

Query: MIC; subject: C[C@H]1[C@H](C)CC[C@]2(C(=O)O)CC[C@]3(C)C(=CC[C@@H]4[C@@]5(C)Cc6c([nH]c7ccc(Br)cc67)C(C)(C)[C@@H]5CC[C@]43C)[C@H]12
62.5 µg/mL
